target: human TYK2 (JH2domain-pseudokinase) (Homo sapiens (Human), UniProt P29597); assay: TYK2 JH2 Domain Binding Assay (KINOMEscan)
Sequence (P29597 556-888): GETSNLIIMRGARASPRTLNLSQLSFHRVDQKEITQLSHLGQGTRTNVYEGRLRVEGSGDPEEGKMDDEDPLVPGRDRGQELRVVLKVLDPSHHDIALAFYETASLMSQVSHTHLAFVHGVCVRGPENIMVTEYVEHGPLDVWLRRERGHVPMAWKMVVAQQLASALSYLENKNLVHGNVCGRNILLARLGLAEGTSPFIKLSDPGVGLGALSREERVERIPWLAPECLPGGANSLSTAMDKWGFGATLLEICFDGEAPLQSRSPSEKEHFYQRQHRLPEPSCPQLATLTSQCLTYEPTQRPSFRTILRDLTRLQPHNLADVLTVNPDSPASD
Collected Kd values appear next to each entry.

# annotated cases, reported Kd shown
Lab book: Kd of CNc1cc(Nc2cc(C)cnc2OCCOC)nc2c(C(=O)NC3CC3)cnn12 noted as 0.2 to 1 nM

Quick note, Kd for CNc1cc(Nc2cccc([C@@H]3CCCOC3)n2)nc2c(C(=O)NC3CC3)cnn12 landed at < 0.2 nM

The compound listed as CNc1cc(Nc2cccc(C3CCCOC3)n2)nc2c(C(=O)N[C@@H]3C[C@@H]3F)cnn12 (some centres unmarked) shows Kd equal to < 0.2 nM

Value of measured Kd for the entry CNc1cc(Nc2cccnc2OC2CC2)nc2c(C(=O)NCC(C)(C)CO)cnn12 : < 0.2 nM

Recorded Kd (compound CNc1cc(Nc2cccc([C@@H]3CCCOC3)n2)nc2c(C(=O)N[C@@H]3CC[C@@H]3O)cnn12 [I-643] ): 0.2 to 1 nM

Proceed to the following item.
// Kd value for CNc1cc(Nc2cccn([C@H]3C[C@@H]3F)c2=O)nc2c(C(=O)N[C@@H]3CC[C@H]3O)cnn12 [I-1092] : 0.2 to 1 nM
